Listing: Effect of selected molecules
assay.target: Estrogen receptor (Mus musculus) (UniProt O08537+P19785)
Sequence (O08537 whole entry, looked up): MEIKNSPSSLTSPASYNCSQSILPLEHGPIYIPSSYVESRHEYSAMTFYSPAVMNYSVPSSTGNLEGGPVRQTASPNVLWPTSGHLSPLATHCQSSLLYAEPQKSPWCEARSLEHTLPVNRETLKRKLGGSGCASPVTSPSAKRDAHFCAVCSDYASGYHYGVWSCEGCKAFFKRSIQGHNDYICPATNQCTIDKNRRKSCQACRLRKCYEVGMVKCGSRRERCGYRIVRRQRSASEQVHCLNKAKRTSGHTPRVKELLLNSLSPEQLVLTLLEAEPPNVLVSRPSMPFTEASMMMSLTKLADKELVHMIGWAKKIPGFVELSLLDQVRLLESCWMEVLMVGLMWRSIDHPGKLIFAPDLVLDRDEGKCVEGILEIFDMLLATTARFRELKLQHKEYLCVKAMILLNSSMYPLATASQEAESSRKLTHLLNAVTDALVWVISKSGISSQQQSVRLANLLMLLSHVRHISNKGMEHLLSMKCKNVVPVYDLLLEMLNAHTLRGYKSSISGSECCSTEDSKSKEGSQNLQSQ
Sequence (P19785 whole entry, looked up): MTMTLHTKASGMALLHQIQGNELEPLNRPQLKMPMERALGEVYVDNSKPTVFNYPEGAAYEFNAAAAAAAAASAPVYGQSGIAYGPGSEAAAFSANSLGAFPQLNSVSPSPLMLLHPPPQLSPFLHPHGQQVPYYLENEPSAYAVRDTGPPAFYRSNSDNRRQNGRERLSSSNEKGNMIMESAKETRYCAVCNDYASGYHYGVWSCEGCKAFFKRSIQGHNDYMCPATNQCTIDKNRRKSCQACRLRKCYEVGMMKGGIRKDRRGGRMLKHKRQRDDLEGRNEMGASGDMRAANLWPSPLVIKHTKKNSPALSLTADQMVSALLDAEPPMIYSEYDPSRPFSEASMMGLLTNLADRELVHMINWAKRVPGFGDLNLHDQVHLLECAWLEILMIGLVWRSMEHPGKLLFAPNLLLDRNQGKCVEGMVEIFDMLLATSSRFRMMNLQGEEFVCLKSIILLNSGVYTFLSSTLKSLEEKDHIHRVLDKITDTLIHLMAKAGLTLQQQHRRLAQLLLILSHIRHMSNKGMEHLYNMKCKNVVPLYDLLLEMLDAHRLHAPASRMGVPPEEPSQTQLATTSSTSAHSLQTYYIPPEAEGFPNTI
protocol.notes: Uterotrophic effect in mice as uterus dry weight(mg) compared to body weight(g) at 250 ug/day dose
Type: functional, tissue-based
Reply briefly: the number, and no unit.

Recorded Effect, per entry:
CCC(C)(c1ccc(O)cc1)C(C)(CC)c1ccc(O)cc1 (stereo not given) :: 50.1
CC(=O)Oc1cc(OC(C)=O)cc(C(C)(C)C(C)(C)c2cc(OC(C)=O)cc(OC(C)=O)c2)c1 :: 11.3
CC(=O)Oc1ccc(C(C)(C)C(C)(C)c2ccc(OC(C)=O)c(OC(C)=O)c2)cc1OC(C)=O :: 14.2
CC(C)(c1ccc(O)cc1)C(C)(C)c1ccc(O)cc1 :: 13.3

Item under review: CC(C)(c1cccc(O)c1)C(C)(C)c1cccc(O)c1 . Reported Effect?
14.6

* * *

assay.target: Estrogen receptor (Mus musculus) (UniProt O08537+P19785)
protocol.notes: Anti-uterotrophic effect in mice as uterus dry weight(mg) compared to body weight(g) at 0 ug/day dose
Type: functional, tissue-based
attribute.measured: Effect
Reply briefly: the number, and no unit.

Recorded Effect, per entry:
CC(C)(c1cccc(O)c1)C(C)(C)c1cccc(O)c1 :: 11.2
CC(C)(c1ccc(O)cc1)C(C)(C)c1ccc(O)cc1 :: 11.2
CCC(CC)(c1cccc(O)c1)C(CC)(CC)c1cccc(O)c1 :: 15.6
CC(C)(c1ccc(F)c(O)c1)C(C)(C)c1ccc(F)c(O)c1 :: 15.7
CCC(C)(c1ccc(O)cc1)C(C)(CC)c1ccc(O)cc1 (stereo not given) :: 14
CC(C)(c1ccc(O)c(O)c1)C(C)(C)c1ccc(O)c(O)c1 :: 15.7
CC(=O)Oc1ccc(C(C)(C)C(C)(C)c2ccc(OC(C)=O)c(OC(C)=O)c2)cc1OC(C)=O :: 12.6
CC(=O)Oc1cc(OC(C)=O)cc(C(C)(C)C(C)(C)c2cc(OC(C)=O)cc(OC(C)=O)c2)c1 :: 12.6
CCC(CC)(c1ccc(O)cc1)C(CC)(CC)c1ccc(O)cc1 :: 14

Item under review: CC(C)(c1cc(O)cc(O)c1)C(C)(C)c1cc(O)cc(O)c1 . Reported Effect?
11.3

* * *

assay.target: Estrogen receptor (Mus musculus) (UniProt O08537+P19785)
protocol.notes: Anti-uterotrophic effect in mice as uterus dry weight(mg) compared to body weight(g) at 25 ug/day dose
Format: functional, tissue-based
attribute.measured: Effect
Reply briefly: the number, and no unit.

CC(C)(c1cccc(O)c1)C(C)(C)c1cccc(O)c1 :: 28.7
CC(C)(c1ccc(F)c(O)c1)C(C)(C)c1ccc(F)c(O)c1 :: 35.2
CC(=O)Oc1ccc(C(C)(C)C(C)(C)c2ccc(OC(C)=O)c(OC(C)=O)c2)cc1OC(C)=O :: 37.8
CCC(CC)(c1cccc(O)c1)C(CC)(CC)c1cccc(O)c1 :: 38

Item under review: CCC(CC)(c1ccc(O)cc1)C(CC)(CC)c1ccc(O)cc1 . Reported Effect?
36.4

CC(C)(c1ccc(O)c(O)c1)C(C)(C)c1ccc(O)c(O)c1 ?
35
